biological target: T1, AXLECDHis (human, UniProt P30530 26-447); test: BLI (Octet), IgG on anti-human Fc sensor, AXLECDHis analyte
T1 construct: theoretical mass 46 kDa used; also called extracellular domain (ECD) of human AXL (aa 1-447) with a C-terminal His tag; soluble recombinant AXL extracellular domain
T1 sequence (P30530 26-447): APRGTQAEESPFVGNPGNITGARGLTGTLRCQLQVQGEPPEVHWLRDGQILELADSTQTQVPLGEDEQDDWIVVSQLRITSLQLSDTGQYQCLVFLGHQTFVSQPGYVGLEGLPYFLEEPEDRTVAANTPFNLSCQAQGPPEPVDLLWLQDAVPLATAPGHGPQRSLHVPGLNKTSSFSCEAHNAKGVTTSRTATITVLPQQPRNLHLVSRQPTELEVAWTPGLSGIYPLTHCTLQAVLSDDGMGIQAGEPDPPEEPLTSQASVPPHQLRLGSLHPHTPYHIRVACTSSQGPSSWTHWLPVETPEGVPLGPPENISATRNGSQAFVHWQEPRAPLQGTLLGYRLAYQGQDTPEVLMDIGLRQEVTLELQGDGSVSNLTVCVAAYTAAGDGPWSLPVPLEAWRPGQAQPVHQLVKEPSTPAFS
property label: kon (M⁻¹ s⁻¹)
Hi! Could you send only the number? It should be in M⁻¹ s⁻¹, unit omitted.

See these solved cases before continuing.
binder	kon (M⁻¹ s⁻¹)
IgG1-AXL-726-M101L (antibody, V domains shown, Expressed as human IgG1,κ) VH: QVQLQQWGAGLLKPSETLSLTCAIDGGSFSGYYWSWIRQPPGKGLEWIGEISHSGRTNYNPSLKSRVTISIDTSKNQFSLKLSSVAAADTAVYYCARFITLIRGAIITHFDYWGQGALVTVSS VL: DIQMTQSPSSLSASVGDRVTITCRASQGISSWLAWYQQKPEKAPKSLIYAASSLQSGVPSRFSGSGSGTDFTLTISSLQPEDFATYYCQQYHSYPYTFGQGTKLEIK	210000
IgG1-AXL-183-N52Q (antibody, V domains shown, Expressed as human IgG1,κ; also called IgG1-AXL-183-N520) VH: QVQLQQWGAGLLKPSETLSLTCAVYGGSFSGYYWSWIRQPPGKGLEWIGEIQQSGSTNYNPSLKSRVTISVDTSKNQFSLKLSSVTAADTSVYYCASGNWDHFFDYWGQGTLVTVSS VL: DIQMTQSPSSVSASVGDRVTITCRASQGISSWLAWYQHKPGKAPKLLIYATSSLQSGVTSRFSGSGSGTDFTLTISSLQPEDFATYYCQQAKSFPWTFGQGTKVEIK	42000

Next up:
### Prompt Can you share its kon? I mean this binder: IgG1-AXL-726 (antibody, V domains shown) VH: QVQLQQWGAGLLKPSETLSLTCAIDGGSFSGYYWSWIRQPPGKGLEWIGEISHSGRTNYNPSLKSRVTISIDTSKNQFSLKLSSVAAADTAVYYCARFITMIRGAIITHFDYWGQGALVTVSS VL: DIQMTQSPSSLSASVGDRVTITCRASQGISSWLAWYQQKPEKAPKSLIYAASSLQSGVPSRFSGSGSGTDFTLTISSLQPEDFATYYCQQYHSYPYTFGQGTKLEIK
### Response 240000

Provenance of the data: patent US20180326084A1
